- target: Platelet-activating factor acetylhydrolase (Homo sapiens)
- experimentalDetails: pPAFAH enzyme inhibitors, primary screen, biochemical, fluorescence polarization, human (AID 463082);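 further: inhibitors block binding of the rhodamine activity-based probe so polarization drops; 0% = enzyme with DMSO and 100% = wells lacking pPAFAH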
- conditionsUsed: recombinant pPAFAH, FP-rhodamine probe fluorescence polarization; at 3.39 µM; active compounds read high
Out of some 330,000 compounds screened, about 4,900 (1.5%) were called active. The sample holds actives, similar compounds and a random draw of the others, so the mix is not that of the screen.
endpoint: inhibition (%)
Give bare numbers, in %.

>>> df
                                   molecule  experimentalresult
0  Cc1ccc(S(=O)(=O)Oc2ccc(/C=N/NC(=O)c3c(Cl)cnn3C)cc2)cc1                4.46
1  O=C(CNC(=O)c1n[nH]c2ccccc12)Nc1cc(Cl)ccc1Cl                -4.9

# context switch: different molecule, same inhibition
Please give measured inhibition of the following entry: COc1ccc(/C=C2/S/C(=N/N=C3\CC4CCC3(C)C4(C)C)NC2=O)cc1 (stereo not drawn) 5.69

----------
- target: Platelet-activating factor acetylhydrolase (Homo sapiens)
- experimentalDetails: pPAFAH enzyme inhibitors, primary screen, biochemical, fluorescence polarization, human (AID 463082);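 further: inhibitors block binding of the rhodamine activity-based probe so polarization drops; 0% = enzyme with DMSO and 100% = wells lacking pPAFAH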
- conditionsUsed: recombinant pPAFAH, FP-rhodamine probe fluorescence polarization; at 3.39 µM; active compounds read high
The whole screen tested about 330,000 compounds, of which about 4,900 (1.5%) were called active. Many of the other results were omitted from the sample, so actives are more common in it than they were.
endpoint: inhibition (%)
Numbers only, in %.

>>> df
                                   compound  experimentalresult
0  COc1ccc(CNC(=O)/C(C#N)=C/c2cccc(OC)c2OC)cc1               -1.57
1  COCCNC(=O)/C(C#N)=C/c1cccc(OCc2ccccc2)c1                2.65
2  O=c1ccc2c(-c3ccccc3S(=O)(=O)O)c3ccc(O)c(O)c3oc-2c1O                  70
3  CN(C)C(=O)c1nc2ccc(Cl)cn2c1CN1CCN(c2ncccn2)CC1               -1.11
4  CCC(C)NC(=O)CSC1=Nc2ccccc2C2=NC(CCC(=O)NCc3ccco3)C(=O)N12 (stereo unspecified)                2.48
5  C=CC[C@@H](CC(=O)N[C@@H](CO)Cc1ccccc1)C(=O)NCCOC(=O)[C@@H](CC=C)CC(=O)OC(C)(C)C                 1.4

Batch: inhibition for all items listed.
1. Cn1nc([N+](=O)[O-])nc1Sc1ccc(C(C)(C)C)cc1
2. N#CC(Cc1cc2ccccc2n1S(=O)(=O)c1ccccc1)OCc1ccccc1 (stereo unspecified)
3. CC(Oc1ccc(F)cc1F)C(=O)/C=C/N(C)C (stereo unspecified)
4. O=C(CSC1=Nc2ccccc2C2=NC(CC(=O)NCc3ccco3)C(=O)N12)NCc1ccco1 (stereo unspecified)

8.17
3.57
0.46
5.99

Batch: inhibition for all items listed.
1. CCCN(CC(=O)Nc1ccccc1C)C(=O)c1ccc2[nH]c3c(c2c1)CC(C)CC3 (stereo unspecified)
2. CS(=O)(=O)N1CCCC(C(=O)Nc2ccccc2C(F)(F)F)C1 (stereo unspecified)
3. O=C(CCCN1C(=O)/C(=C/c2cccs2)SC1=S)Nc1ccc(O)cc1
4. O=S(=O)(Oc1ccccc1C(=S)N1CCOCC1)c1ccc(Cl)cc1
5. CCCCCCSc1ccc([C@@H]2[C@@H]3C(=O)N(CC)C(=O)[C@@H]3[C@]3(C(=O)OC)CCCCN23)cc1OC
6. CC(C)C1N=C2c3ccccc3N=C(SCC(=O)c3ccc(O)c(O)c3)N2C1=O (stereo unspecified)

1. 2.57
2. -1.76
3. 1.25
4. 4.58
5. 26.9
6. 55.4

----------
- target: Platelet-activating factor acetylhydrolase (Homo sapiens)
- experimentalDetails: pPAFAH enzyme inhibitors, primary screen, biochemical, fluorescence polarization, human (AID 463082);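 further: inhibitors block binding of the rhodamine activity-based probe so polarization drops; 0% = enzyme with DMSO and 100% = wells lacking pPAFAH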
- conditionsUsed: recombinant pPAFAH, FP-rhodamine probe fluorescence polarization; at 3.39 µM
About 4,900 (1.5%) of roughly 330,000 compounds were called active.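 The calls were made as follows: active = inhibition above the mean inhibition across the screen plus 3 SD (cut at about 25% in these data); inactive = the rest.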 Many of the other results were omitted from the sample, so actives are more common in it than they were.
The reply should be one of these categories: active, inactive

In [3]: df
Out[3]:
                                   molecule  classlabel
0     CN(CC(=O)NC1CCCC1)S(=O)(=O)c1cnc[nH]1    inactive
1  Cc1ccc(/C=N/NC(=S)Nc2cccc(S(=O)(=O)N(C)C)c2)o1    inactive
2  CCOC(=O)c1c(C)oc2ccc(OCC(=O)N(CC)CC)cc12    inactive

In this assay, the call recorded for `O=C(NN=Cc1ccc(N2CCOCC2)cc1)c1cc2ccccc2cc1O` was what? inactive

In this assay, the call recorded for `Fc1ccc(-n2c(Cc3ccccc3)nnc2SCc2nc(-c3ccc(Cl)cc3)no2)cc1` was what? inactive

In this assay, the call recorded for `CC1=C/C(=N\OS(=O)(=O)c2ccccc2)C=CC1=O` was what? inactive

In this assay, the call recorded for `Cc1ccc(-c2noc(CSc3nnc(-c4ccncc4)n3-c3ccc(F)cc3)n2)cc1` was what? active

In this assay, the call recorded for `Cc1cccc(-n2c(C)cc(/C=N\NC(=O)c3cccs3)c2C)c1` was what? inactive

In this assay, the call recorded for `Cc1cc(C)cc(OCC(=O)Nc2ccc(N3CCOCC3)cc2N2CCOCC2)c1` was what? inactive

In this assay, the call recorded for `O=C(N/N=C\c1cccnc1)c1cc(-c2ccccc2)nc2c(Cl)cccc12` was what? inactive

In this assay, the call recorded for `O=C(Oc1cccc(C(=S)N2CCOCC2)c1)c1cccc(Cl)c1` was what? inactive

In this assay, the call recorded for `O=C(COC(=O)Cc1ccc([N+](=O)[O-])cc1)NC1CCCCCC1` was what? inactive

In this assay, the call recorded for `O=C1COc2ccc(C(=O)COC(=O)c3cccnc3Cl)cc2N1` was what? inactive

In this assay, the call recorded for CC(Oc1ccc(Br)cc1)C(=O)NCC(c1ccco1)N1CCCCC1 (configuration not stated) was what? inactive

In this assay, the call recorded for `COc1ccc(Cn2nnc3c(=O)[nH]c(C4CCN(C(=O)c5ccccc5Cl)CC4)nc32)cc1` was what? inactive

In this assay, the call recorded for `CCOC(=O)c1c(-c2ccccc2)oc2cc(Br)c(O)c(C=O)c12` was what? active

In this assay, the call recorded for O=C(C1CC(=O)N(c2ccc(Br)cc2)C1)N1CCCC1 (configuration not stated) was what? inactive

----------
Kindly supply the reported inhibition values for the records listed here.
- target: Platelet-activating factor acetylhydrolase (Homo sapiens)
- experimentalDetails: pPAFAH enzyme inhibitors, primary screen, biochemical, fluorescence polarization, human (AID 463082);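 further: inhibitors block binding of the rhodamine activity-based probe so polarization drops; 0% = enzyme with DMSO and 100% = wells lacking pPAFAH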
- conditionsUsed: recombinant pPAFAH, FP-rhodamine probe fluorescence polarization; at 3.39 µM; active compounds read high
The whole screen tested about 330,000 compounds, of which about 4,900 (1.5%) were called active. Shown is part of a subset that was picked to be rich in actives.

Below, each entry is followed by its recorded inhibition result.
>>> df
                                   compound                                    target  experimentalresult
0  CCOC(=O)CSc1nnc(CNC(=O)c2cccs2)n1-c1cc(OC)ccc1OC  Platelet-activating factor acetylhydrolase (Homo sapiens)    4.54% (inactive)
1    O=C(NOCc1ccccc1)c1cccc([N+](=O)[O-])c1  Platelet-activating factor acetylhydrolase (Homo sapiens)    7.75% (inactive)
2  N#Cc1c(N2CCCCC2)nc(N)c2c(N)nc(SCC(=O)O)cc12  Platelet-activating factor acetylhydrolase (Homo sapiens)      27.8% (active)

Batch: inhibition for all items listed.
1. Cc1cccc(C)c1N1CCN(S(=O)(=O)N2CCCCC2)CC1
2. COC(=O)[C@]1(C)CCC[C@@]2(C)C3CC[C@]4(OC(C)=O)C[C@@]3(CCC21)CC4=NO (some centres not stated)

0.66% (inactive)
-4.31% (inactive)

Batch: inhibition for all items listed.
1. Cc1ccccc1C(=O)Nc1cccc(-c2nnc(SCC(=O)O)n2C)c1
2. CCOC(=O)c1nc(Nc2ccc(C(=O)OC)cc2)c2ccccc2n1

1. -1.6% (inactive)
2. -0.04% (inactive)

Batch: inhibition for all items listed.
1. COc1ccccc1C(=O)NCC(=O)NCCSc1ccc(Br)cc1
2. NS(=O)(=O)c1ccccc1NC(=O)c1c(O)c2ccccc2[nH]c1=O
3. COc1cc(CNC2CCCC2)c(Br)cc1OCc1ccccc1
4. O=C(NCCCN1CCCC1=O)c1cccc(S(=O)(=O)NCc2ccccc2)c1
5. CC(=O)c1ccc(-c2ccc(Cn3c(C)nc4cc(N)c(C)nc43)cc2)cc1

28.6% (active)
-4.47% (inactive)
1.42% (inactive)
5.61% (inactive)
3.76% (inactive)
